Hello, the source for this data is the kinase profiling compilation of Christmann-Franck et al. (2016), in case you need it.

Biological target: MARK1 (human) (UniProt Q9P0L2)
Sequence (Q9P0L2 whole entry, looked up): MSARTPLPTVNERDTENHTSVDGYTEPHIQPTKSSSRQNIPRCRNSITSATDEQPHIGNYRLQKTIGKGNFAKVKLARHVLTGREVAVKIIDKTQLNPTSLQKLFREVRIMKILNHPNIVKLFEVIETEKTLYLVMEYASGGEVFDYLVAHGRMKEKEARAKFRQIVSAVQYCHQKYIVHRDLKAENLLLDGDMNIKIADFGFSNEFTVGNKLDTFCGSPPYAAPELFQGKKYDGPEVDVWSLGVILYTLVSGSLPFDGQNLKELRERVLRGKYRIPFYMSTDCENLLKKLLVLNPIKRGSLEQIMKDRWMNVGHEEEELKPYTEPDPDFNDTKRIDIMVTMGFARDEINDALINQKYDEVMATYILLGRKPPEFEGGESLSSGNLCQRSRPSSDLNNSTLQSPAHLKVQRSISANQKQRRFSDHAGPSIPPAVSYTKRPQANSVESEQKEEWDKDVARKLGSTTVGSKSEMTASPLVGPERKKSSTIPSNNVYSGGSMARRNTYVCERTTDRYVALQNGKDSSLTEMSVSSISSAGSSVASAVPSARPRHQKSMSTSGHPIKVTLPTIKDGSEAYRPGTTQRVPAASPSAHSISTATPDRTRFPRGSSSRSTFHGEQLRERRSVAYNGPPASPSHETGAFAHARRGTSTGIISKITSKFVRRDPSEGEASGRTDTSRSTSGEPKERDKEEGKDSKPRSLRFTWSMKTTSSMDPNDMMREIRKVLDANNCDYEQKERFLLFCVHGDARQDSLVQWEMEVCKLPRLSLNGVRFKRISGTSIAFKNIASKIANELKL
Experiment: radiometric filter-binding kinase assay, Kinase HotSpot
Conditions: compound 0.5 µM; ATP 10 µM

{"Mol smiles": "O=C1NC(=O)/C(=C/c2ccc3c(c2)OC(F)(F)O3)S1", "residual activity / %": 97.2}
{"Mol smiles": "N#C/C(=C(/N)Sc1ccc(N)cc1)c1ccccc1C(F)(F)F", "residual activity / %": 99.9}
{"Mol smiles": "Nc1ncnc2[nH]nc(Nc3ccc(F)cc3)c12", "residual activity / %": 93.8}
{"Mol smiles": "COc1ccc(COc2ccc(Cc3cnc(N)nc3N)cc2OC)cc1", "residual activity / %": 103}
{"Mol smiles": "Nc1ccc2ncnc(NCCc3ccc(Oc4ccccc4)cc3)c2c1", "residual activity / %": 103}
{"Mol smiles": "CCCC(=O)Oc1ccc2[nH]c(C(=O)c3cc4ccccc4[nH]3)cc2c1", "residual activity / %": 96.4}
{"Mol smiles": "Cc1[nH]c(/C=C2\\C(=O)Nc3ccc(S(=O)(=O)N(C)c4cccc(Cl)c4)cc32)c(C)c1C(=O)N1CCN(C)CC1", "residual activity / %": 62.5}
{"Mol smiles": "O=C1Nc2ccc(Cl)cc2/C1=C/c1cc(Cl)c(O)c(Cl)c1", "residual activity / %": 89.5}
{"Mol smiles": "CC(=O)c1ccc(N2CCOCC2)cc1O", "residual activity / %": 96.7}
{"Mol smiles": "Nc1ncnc2c1c(-c1ccc(Oc3ccccc3)cc1)cn2C1CCCC1", "residual activity / %": 94.1}
{"Mol smiles": "CCC(=O)Nc1ccc2ncnc(Nc3cccc(Br)c3)c2c1", "residual activity / %": 98.5}
